- target.under.test: V. cholerae BH1651 luxOD47E, luciferase light induction, 6 h
- test.summary: Quorum luxo inducers, light production, v cholerae bh1651 luxod47e, confirmatory dose response (AID 624254)
Calls of active or inactive are those of the source. The rule behind the calls is not given here.
One label from this list, please: active, inactive

[Q] Please indicate how the test categorized Cc1noc(C)c1NC(=O)Nc1cccc2c1O[C@@H](CN(C)S(=O)(=O)c1cccs1)[C@H](C)CN([C@H](C)CO)C2=O .
[A] active

[Q] For COc1ccc(OC)c(S(=O)(=O)N2CCC(C(=O)N3CCc4ccccc4C3)CC2)c1 , which call appears in the assay record?
[A] active

[Q] Could you kindly confirm the outcome this assay logged for COc1ccc(C)c2sc(N3CCCC3)nc12 ?
[A] active

[Q] Could you check what this test reported for CC(C)COC(=O)CNc1n[nH]c(=S)[nH]c1=O ?
[A] active

[Q] Query: recorded result category for O=C(CN1CCN(c2ccc(F)cc2)CC1)Nc1cc(C(F)(F)F)ccc1Cl in this test
[A] inactive

[Q] Status in this test for CC(C)n1nnnc1SCC(=O)c1ccc2c(c1)OCCO2 ?
[A] active

[Q] What did this assay record as the result for CCCCCCCCOC(=O)C(NC(=O)CCC(=O)Nc1ccc(S(N)(=O)=O)cc1)C(O)c1ccccc1 (stereo unspecified) ?
[A] inactive

[Q] Record request — test call for C=Cn1c(C(=O)O)ccc1-c1ccc(OC)cc1
[A] active

[Q] What did this assay record as the result for Cc1sc(N)nc1-c1ccc(Oc2ccccc2)cc1 ?
[A] active

[Q] Please let me know the test result on file for COc1ccc(N2CCN(C(=O)COc3ccc4ccccc4c3)CC2)cc1 .
[A] active

[Q] Per the records of this test, what outcome belongs to Cc1ccc2onc(CC(=O)O)c2c1 ?
[A] active

----------
- target.under.test: V. cholerae BH1651 luxOD47E, luciferase light induction, 6 h
- test.summary: Quorum luxo inducers, light production, v cholerae bh1651 luxod47e, confirmatory dose response (AID 624254)
Activity calls are given as the source filed them. No rule for the calls is given here.
API: response.call in active, inactive

[Q] // return assay outcome for CCn1nnnc1NCc1ccc(SC)cc1
[A] active

[Q] For O=C(Cn1cccc1C(=O)c1ccccc1)NCCN1CCCCCC1 , what call appears in the results of this test?
[A] active

[Q] Hey, what did the test say about Cc1noc(C)c1C(=O)OCC(=O)c1c[nH]c2ccccc12 ?
[A] inactive

[Q] // outcome(item) with item = CCC(CC)c1nnc(NC(=O)COc2ccc3c(C)cc(=O)oc3c2)s1
[A] active

[Q] Which outcome was entered for the molecule COc1cc(NC(=O)C2=C(C)OCCS2)c(Cl)cc1C(=O)NCCN(C)C in this test?
[A] active

[Q] Could you kindly confirm the outcome this assay logged for CCOc1ccc(CCNC(=O)C2CCN(c3ccc(N4CCOCC4)nn3)CC2)cc1OCC ?
[A] active

[Q] Each molecule tested received a call. Report the one for O=C(NCc1ccccn1)C(C(=O)c1ccc(F)cc1)n1ccccc1=O (centres undefined) .
[A] active

[Q] Please indicate how the test categorized O=C(NCCC(=O)N1CCCCC1)c1ccc(Br)cc1 .
[A] active

[Q] Recorded test outcome, item CCC(=O)N(CC)c1nc(-c2cc(OC)ccc2OC)cs1
[A] active

[Q] Fill in: this test's call for CCn1cc(C(=O)NC2CCCCC2C)c(=O)c2ccc(C)nc21 (centres undefined) is ___
[A] active

[Q] Could you kindly confirm the outcome this assay logged for CCOC(=O)c1cnc(-n2nc(C)cc2C)nc1N(C)C ?
[A] active

[Q] Any idea what this test logged for CC(C)Cn1c(CN2CCN(C)C(CCO)C2)nc2ccccc21 (centres undefined) ?
[A] inactive

[Q] For Cc1cc2oc(=O)cc(-c3ccccc3)c2c(C)c1-c1ccc(C#N)cc1 , which call appears in the assay record?
[A] active

[Q] # lookup: test call for CCCOc1ccc(-c2nc(OC)c3ccccc3n2)cc1
[A] active

[Q] Assay outcome for COc1ccc(S(=O)(=O)N2CCN(c3cnccn3)CC2)cc1 : what was it?
[A] active

[Q] // return assay outcome for CCCS(=O)(=O)N1CCC(C(=O)N2CCN(C(=O)OCC)CC2)CC1
[A] inactive

[Q] Dear all, I need the recorded test outcome for CCOc1ccc(CCNC(=O)COC(=O)Cc2ccc(F)cc2)cc1OCC , thank you.
[A] active

[Q] Test call for this molecule, please: Cn1c(Cn2cnc(Cl)c2Cl)nc2ccccc21
[A] active

[Q] Look up the recorded call for COc1ccc(OCCOC(=O)c2cccs2)cc1 in this test.
[A] active

[Q] Assay outcome for COc1cccc(OCC(=O)NC2CCCCC2)c1 : what was it?
[A] active

[Q] I would be grateful if you could indicate the recorded call for Cc1ccc2nc(NCCc3ccccc3)c3nncn3c2c1 .
[A] active

[Q] What classification did COc1ccc(Cl)cc1S(=O)(=O)NC(C)C(=O)NCCCn1ccnc1 (centres undefined) end up with in this test?
[A] active

[Q] So what was the verdict on COc1ccc(Cl)cc1NC(=O)COC(=O)c1ccc(Br)o1 in this test?
[A] active

[Q] // return assay outcome for COCc1[nH]nc2c1C1(CCC3(CC1)OCCO3)C(C#N)=C(N)O2
[A] inactive
